Source listed as patent US20150132746A1.

- assay_procedure: Long term stability of model analytes in dried oral fluid stored 30 days on alginate or chitosan foam
- Assay type: physicochemical, human
- reported_conditions: oral fluid on chitosan foam; theoretical 500 ng/ml; stored at 37 C; n = 3
Where a name gives a salt, the structure may show the parent alone.
Here the recorded Measured concentration at day 30 is given for each entry.

compound	Measured concentration at day 30
COc1ccc(CC(C)N)cc1 (centres unmarked)	648 ng/mL
CN[C@@H](C)Cc1ccccc1	467 ng/mL
CO[C@@]12CC[C@@]3(C[C@@H]1[C@](C)(O)C(C)(C)C)[C@H]1Cc4ccc(O)c5c4[C@@]3(CCN1CC1CC1)[C@H]2O5.Cl [Buprenorphine, buprenorphine hydrochloride]	595 ng/mL
CNC(C)Cc1ccc(OC)cc1 (centres unmarked)	623 ng/mL
CCC(=O)C(CC(C)N(C)C)(c1ccccc1)c1ccccc1 (centres unmarked) [Methadone, Methadone hydrochloride]	545 ng/mL
